Values compiled from patent US12319655B2.

Molecular target: A-Raf kinase (SEQ. ID No: 1) (Homo sapiens (Human), UniProt P10398, Y301D/Y302D)
Sequence (P10398 other isoform, or with tags, fused parts or gaps Y301D (already in the parent)/Y302D (already in the parent)): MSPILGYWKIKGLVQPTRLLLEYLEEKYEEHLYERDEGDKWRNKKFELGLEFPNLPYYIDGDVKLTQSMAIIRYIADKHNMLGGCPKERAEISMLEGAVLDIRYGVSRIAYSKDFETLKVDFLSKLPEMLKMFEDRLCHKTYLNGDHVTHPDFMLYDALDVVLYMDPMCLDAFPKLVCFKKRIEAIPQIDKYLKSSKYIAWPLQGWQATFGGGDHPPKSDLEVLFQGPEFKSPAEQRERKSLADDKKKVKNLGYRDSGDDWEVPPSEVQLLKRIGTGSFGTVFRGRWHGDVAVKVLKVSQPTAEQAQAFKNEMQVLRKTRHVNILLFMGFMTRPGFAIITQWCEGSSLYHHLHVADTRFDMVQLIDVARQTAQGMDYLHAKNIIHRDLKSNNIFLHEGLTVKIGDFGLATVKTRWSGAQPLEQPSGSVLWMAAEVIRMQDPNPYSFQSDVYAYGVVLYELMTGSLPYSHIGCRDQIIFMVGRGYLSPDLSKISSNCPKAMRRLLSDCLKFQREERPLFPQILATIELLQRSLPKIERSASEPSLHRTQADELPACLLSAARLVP
Assay: Biochemical Assay for A-Raf (1)
Settings: Table J, assay version (1); read-out: ARAF (1) IC50
pIC50: −log10 of the molar value.
endpoint_label: pIC50

compound: Cc1ccc(NC(=O)c2cnnc(C3CC3)c2)cc1-c1cccc(-c2cc(NC(=O)C3CC3)ncn2)c1 [Example 284]
pIC50: 6.00 to 6.30
--
compound: CC(=O)Nc1cc(-c2nccc(-c3cc(NC(=O)c4ccnc(C(F)(F)F)c4)c(F)cc3C)n2)ccn1 [Example 107]
pIC50: 6.00 to 6.30
--
compound: CC(=O)Nc1cc(-c2cc(-c3cc(NC(=O)c4ccnc(C(F)(F)F)c4)ccc3C)cn(CCO)c2=O)ccn1 [Example 102]
pIC50: 5.00 to 6.00
--
compound: Cc1ccc(NC(=O)c2ccnc(C(C)(C)C#N)c2)cc1-c1cncc(-c2ccnc(NC(=O)C3CC3)c2)n1 [Example 112]
pIC50: 6.00 to 6.30
--
compound: Cc1ccc(NC(=O)c2ccnc(C(C)(C)C#N)c2)cc1-c1ccnc(-c2ccnc(C(=O)NC3CC3)c2)c1 [Example 162]
pIC50: 5.00 to 6.00

Query string: Answer with reported pIC50 of Cc1cc(F)c(NC(=O)c2ccnc(C(F)F)c2)cc1-c1ccnc(-c2ccnc(NC(=O)C3CC3)c2)c1 [Example 307]
Result string: 6.00 to 6.30

Query string: Answer with reported pIC50 of CNC(=O)c1cc(-c2cc(-c3cc(NC(=O)c4cccc(C(C)(C)C#N)c4)ccc3C)ccn2)ccn1 [Example 127]
Result string: 5.00 to 6.00

###

Target: C-Raf kinase (SEQ. ID NO: 3) (Homo sapiens (Human), UniProt P04049, Y340D/Y341D)
Sequence (P04049 307-648 Y340D/Y341D): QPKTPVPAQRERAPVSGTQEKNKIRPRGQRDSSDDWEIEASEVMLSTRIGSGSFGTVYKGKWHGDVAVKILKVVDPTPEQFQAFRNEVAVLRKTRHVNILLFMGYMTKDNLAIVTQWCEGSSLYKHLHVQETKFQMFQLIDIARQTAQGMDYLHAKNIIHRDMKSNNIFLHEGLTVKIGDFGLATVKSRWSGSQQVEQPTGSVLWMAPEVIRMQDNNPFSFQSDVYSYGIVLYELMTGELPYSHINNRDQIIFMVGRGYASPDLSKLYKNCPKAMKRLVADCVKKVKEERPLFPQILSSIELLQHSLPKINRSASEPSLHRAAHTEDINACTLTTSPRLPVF
Assay: Biochemical Assay for C-Raf (1)
Conditions: Table J, assay version (1); read-out: CRAF (1) IC50
pIC50: −log10 of the molar value.
endpoint_label: pIC50

Answered examples (3):
compound: CNC(=O)c1cc(-c2cncc(-c3cc(NC(=O)c4ccnc(C5(C#N)CC5)c4)ccc3C)n2)ccn1 [Example 138]
result_value: ≥ 7.00

compound: CNC(=O)c1cc(-c2nccc(-c3cc(NC(=O)c4ccnc(C(C)(C)C#N)c4)cnc3C)n2)ccn1 [Example 194]
result_value: 6.30 to 7.00

compound: COC(=O)Nc1cc(-c2nccc(-c3cc(NC(=O)c4ccnc(C(C)(C)F)c4)c(F)cc3C)n2)ccn1 [Example 304]
result_value: ≥ 7.00

Query string: Answer with reported pIC50 of CNC(=O)c1cc(-c2cc(-c3cc(NC(=O)c4ccnc(C)c4)ccc3C)ccn2)ccn1 [Example 40]
Result string: ≥ 7.00

###

Recorded pIC50, one value per entry.
Test system: WM3928 cells
Experiment: WM3928 Cell Proliferation Assay (1)
Type: cell-based
pIC50: −log10 of the molar value.

Answered examples (6):
item_smiles: Cc1ncc(NC(=O)c2ccnc(C(C)(C)C#N)c2)cc1-c1cccc(-c2ccnc3[nH]cnc23)c1
result_value: 5.00 to 6.00
--
item_smiles: Cc1cc(F)c(NC(=O)c2ccnc(C(C)(C)C#N)c2)cc1-c1cncc(-c2cc(NC(=O)C3CC3)ncn2)c1
result_value: ≥ 7.00
--
item_smiles: COC(C)(C)c1cc(C(=O)Nc2ccc(C)c(-c3ccnc(-c4ccnc(NC(=O)C5CC5)c4)n3)c2)ccn1
result_value: ≥ 7.00
--
item_smiles: Cc1ncc(NC(=O)c2ccnc(C(C)(C)C#N)c2)cc1-c1cncc(-c2cc(NC(=O)C3CC3)ncn2)c1
result_value: ≥ 7.00
--
item_smiles: COC(=O)Nc1cc(-c2cc(-c3cc(NC(=O)c4ccnc(C(C)(C)C#N)c4)c(F)cc3C)ccn2)ccn1
result_value: ≥ 7.00
--
item_smiles: COC(=O)Nc1cc(-c2cncc(-c3cc(NC(=O)c4ccnc(C5(C#N)CC5)c4)ccc3C)c2)ncn1
result_value: ≥ 7.00

Then there is this compound:
Query string: Answer with reported pIC50 of "CNC(=O)c1cc(-c2cc(-c3cc(NC(=O)c4cnnc(C5CC5)c4)ccc3C)ccn2)ccn1"
Result string: 6.00 to 6.30
